- measured-target: Cholecystokinin receptor type A (Rattus norvegicus)
- Sequence (P30551 whole entry): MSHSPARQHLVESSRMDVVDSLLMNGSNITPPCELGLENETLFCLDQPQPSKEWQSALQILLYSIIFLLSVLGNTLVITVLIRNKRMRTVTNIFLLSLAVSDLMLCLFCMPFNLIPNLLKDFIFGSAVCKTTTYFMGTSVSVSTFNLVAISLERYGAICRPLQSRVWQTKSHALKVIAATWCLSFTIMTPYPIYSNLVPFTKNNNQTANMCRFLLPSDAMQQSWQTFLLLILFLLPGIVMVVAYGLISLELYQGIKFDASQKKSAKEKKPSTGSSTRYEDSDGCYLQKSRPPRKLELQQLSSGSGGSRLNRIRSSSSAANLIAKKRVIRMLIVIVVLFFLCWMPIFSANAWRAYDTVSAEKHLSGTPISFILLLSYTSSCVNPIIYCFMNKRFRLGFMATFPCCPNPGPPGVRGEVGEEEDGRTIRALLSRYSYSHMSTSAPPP
reported-endpoint: IC50

[
  {
    "smiles-data": "O=C(Cc1c[nH]c2ccccc12)N[C@H]1CCCN2C(=O)N(Cc3ccccc3)C(=O)C[C@@H]12",
    "IC50": "> 1000 nM"
  }
]

// next item, IC50 requested
The value of IC50 recorded for O=C(N[C@H]1CCCN2C(=O)N(Cc3ccccc3)C(=O)C[C@H]12)c1cc2ccccc2[nH]1 when tested on Cholecystokinin receptor type A (Rattus norvegicus) reads > 1000 nM
